- TARGET SYSTEM: human macrophage migration inhibitory factor (MIF) (human, UniProt P14174 2-115)
- Sequence (P14174 2-115 limits assumed): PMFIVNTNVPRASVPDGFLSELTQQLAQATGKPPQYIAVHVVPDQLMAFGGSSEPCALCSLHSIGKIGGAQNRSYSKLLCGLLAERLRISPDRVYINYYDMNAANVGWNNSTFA
- ASSAY NAME: cell-based or functional assay
READOUT: % MIF PPt Activity (%)
Answer with a number only, understood to be in %.

Annotate the binder anti-MIF monoclonal antibody 22F11-6 (antibody, V domains shown, Mouse hybridoma antibody from a MIF knockout mouse, purified from ascites; also called Mab 22F11-6) VH: EVKLEESGGGLVQPGGSMKLSCAASGFTFGDAWMYWVRQSPEKGLEWVAEIRSKAHNHATYYAESVKGRFTISRDDSKSSVYLQMSSLRAEDTGIYYCTSHHYGSSWYFDVWGAGTTVTVSS VL: DIQMTQSPASLSASVGETVTITCRASENIYSYLTWFQQKQGKSPQLLVYDAKTLAEGVPSSFSGSGSGTQFSLKIISLQPEHFGSYYCQHHYGRPYTFGGGTKLEIKR with its measured % MIF PPt Activity. 65
